- tested system: T1, MHC class I allele A*0201 monomer (human, biotinylated, bound to streptavidin-coated plate)
- T1 construct: also called A2; HLA-A2
- assay info: iTopia, multiparametric iScore
reported endpoint: iScore
Answer with a bare number; do not write a unit.

MRNRVLLEL [5T4 9-mer peptide 165] has a reported iScore of 0

Given item GAIFLLVLY [5T4 9-mer peptide 184] , the value recorded as its iScore is 0

Recorded iScore (binder EKMRNRVLL [5T4 9-mer peptide 164] ): 0.096

# iScore of PPSLQTSYV [5T4 9-mer peptide 175] = 0.145

Looking up IRVFLDNNP [5T4 9-mer peptide 144] , I see its iScore listed as 0

Lab note: measured iScore of DLDCDPILP [5T4 9-mer peptide 171] was 0

Documented iScore of LDNNPWVCD [5T4 9-mer peptide 146] : 0

Summary for this binder, SLQTSYVFL [5T4 9-mer peptide 176] : iScore is 0.561

Form: binder = TWLKETEVV [5T4 9-mer peptide 154] ; iScore = 0.184

Entry SLVSLTYVS [5T4 9-mer peptide 123] ; iScore = 0.206

Note to self: iScore recorded for LHLEDNALK [5T4 9-mer peptide 132] was 0

Record summary for MVTWLKETE [5T4 9-mer peptide 153] : reported iScore = 0.051

Please fill in: iScore reported for DRLTCAYPE [5T4 9-mer peptide 160] = 0

Recorded result, LGIVLALIG [5T4 9-mer peptide 180] , iScore: 0

// EGYHYRYEI [5T4 9-mer peptide 199] : iScore value = 0

Measured iScore, DCDPILPPS [5T4 9-mer peptide 172] : 0

Entry RDHMEGYHY [5T4 9-mer peptide 197] — recorded iScore = 0

Briefly, iScore measured for LLVLYLNRK [5T4 9-mer peptide 186] : 0.386

Memo: ADPRLTNLS [5T4 9-mer peptide 204] , reported iScore: 0

Entry SADLDCDPI [5T4 9-mer peptide 170] ; iScore = 0

response.value for NNPWVCDCH [5T4 9-mer peptide 147] (field: iScore) = 0

get_value(item= CAYPEKMRN [5T4 9-mer peptide 162] , readout=iScore) returns 0

Query VLYLNRKGI [5T4 9-mer peptide 187] yields iScore of 0.095

get_value(item= YPEKMRNRV [5T4 9-mer peptide 163] , readout=iScore) returns 0

Lookup result for NNSLVSLTY [5T4 9-mer peptide 122] ; measured iScore: 0

Form field iScore, entry ALKVLHNGT [5T4 9-mer peptide 135] : 0.104

# binder ILPPSLQTS [5T4 9-mer peptide 174] ; its iScore = 0.523

Item: NRVLLELNS [5T4 9-mer peptide 166] | iScore: 0.031

Entry under test: VFLDNNPWV [5T4 9-mer peptide 145] . Its iScore was 0.239
